test_name: qHTS assay for small molecule agonists of the p53 signaling pathway (AID 651631); further: nearly all actives have a fitted effect of over 15% in size
test_settings: HCT-116 p53RE-bla reporter, beta-lactamase FRET ratio, 16 h; series mostly up to 73.3 µM
Results filed as inconclusive are left out. Calls of active or inactive are those of the source. The call rests on the fitted dose curve.
One label from this list, please: true = active, false = inactive

Solved entries (count: 3):
molecule: CO/C=C(/C(=O)OC)c1ccccc1COc1cccc(C(F)(F)F)n1
assigned_class: true
--
molecule: COc1c(C(C)(C)C)cc([N+](=O)[O-])c(C)c1[N+](=O)[O-]
assigned_class: false
--
molecule: N#Cc1cc(I)c(O)c(I)c1
assigned_class: true

What did this assay record as the result for CCOC(=O)CBr ?
false

Please let me know the test result on file for CC(=O)C(C)(C)C .
false

Assay result, entry CC(C)=CCOc1c2occc2cc2ccc(=O)oc12 — outcome?
false

What did the test return for C=CC(=O)OC ?
false

Hi team, can someone confirm the assay call for CC/C(=N\OC/C=C/Cl)C1=C(O)CC(C2CCOCC2)CC1=O (stereo unspecified) ?
false

Each molecule tested received a call. Report the one for CCOc1ccc(C(C)(C)COCc2cccc(Oc3ccccc3)c2)cc1 .
false

Kindly provide the recorded test outcome for the following molecule: CCCN(CCCl)c1c([N+](=O)[O-])cc(C(F)(F)F)cc1[N+](=O)[O-]
false

Tell me the recorded outcome of this test for N#C/C(N)=C(/N)C#N .
false
